# assay_system: A-kinase anchor protein 7 isoform gamma (Human)
# Sequence (Q9P0M2 whole entry, canonical isoform): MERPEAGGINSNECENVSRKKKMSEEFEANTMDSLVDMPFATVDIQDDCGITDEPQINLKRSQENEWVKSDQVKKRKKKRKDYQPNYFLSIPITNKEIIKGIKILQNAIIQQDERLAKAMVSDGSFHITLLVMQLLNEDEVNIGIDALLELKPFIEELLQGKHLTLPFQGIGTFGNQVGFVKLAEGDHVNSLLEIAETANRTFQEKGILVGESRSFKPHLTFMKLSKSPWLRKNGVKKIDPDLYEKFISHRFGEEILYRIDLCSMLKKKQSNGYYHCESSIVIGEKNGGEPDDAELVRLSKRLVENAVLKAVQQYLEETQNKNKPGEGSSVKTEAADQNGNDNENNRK
# experiment_notes: Binding Assay
readout_type: EC50 (µM)
Note: unit µM is implicit; provide only the numeric part.

Consider the compound shown here: Cc1ccc(NC(=O)Nc2ccc(CN(Cc3ccc(NC(=O)Nc4ccc(C)cc4)cc3)Cc3ccc(NC(=O)Nc4ccc(C)cc4)cc3)cc2)cc1 [US9556111, Table 1.20] What is its recorded EC50?
5.2
